Numbers sourced from paper PMC9127112.

# STUDY SYSTEM: dsA2: HLA-A*02:01(Y84C/A139C) disulfide mutant heavy chain / β2m complex (Homo sapiens, UniProt P04439, D140Y/D185E/D98H/E176V/E277Q/G131W/G231S/I119V/I121R/I166T/I218V/L300P/L318F/N151K/N90K/P208A/P217A/Q86G/Q94H/R138H/R169H/T345S/A163C/Y108C)
# Construct: made in house; host or cells: Escherichia coli (pET3a)
# PROTOCOL DESCRIPTION: native mass spectrometry (nMS) of peptide binding to empty dsA2;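 note: native nano-electrospray MS on Q-Tof II in positive mode, dsA2 at 10 µM with peptide 50–200 µM, incubated ≥10 min on ice, argon collision gas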
# CONDITIONS: acceleration voltage 25 V, cone 150 V; ratio 1:5; raw data; mean of >=3 measurements
Ends that are not written are not given here.
Note to self: values exactly at 50% are Y. So AUC dsA2 (empty) at or above 50% is Y, below is N.

- SUBSTANCE: "LVPMVATV [LV8]"
  CLASS ASSIGNMENT: "N"
- SUBSTANCE: "PMVATV [PV6]"
  CLASS ASSIGNMENT: "Y"
- SUBSTANCE: "NLVPMV [NV6]"
  CLASS ASSIGNMENT: "Y"
- SUBSTANCE: "VPMVATV [VV7]"
  CLASS ASSIGNMENT: "Y"
- SUBSTANCE: "NLVPMVA [NA7]"
  CLASS ASSIGNMENT: "Y"
